Here's a roundup of pIC50 values tested on UniProtKB Q13547, taken from various published works.
pIC50: −log10 of the molar value.

Observe how each entry below is paired with its result.
smiles text: CC(C)Cc1nc2cc(/C=C/C(=O)NO)ccc2n1CC(C)(C)CN(C)C
obs value: 6.74

smiles text: O=C(NO)c1ccc(Cn2ccc3cc(C4=CCC(F)(F)CC4)cnc32)cc1
obs value: 5.64

smiles text: O=C(Cn1ccc2ccc(C(=O)NO)cc21)Nc1ccccc1
obs value: < 5.00

smiles text: COc1ccc(Cl)cc1CNc1ccc(C(=O)NO)cc1
obs value: 6.40 to 6.70

smiles text: CN1CCN(CCOc2ccc(/C=C/C(=O)NO)c(Oc3cccc(Cl)c3)c2)CC1
obs value: 5.00 to 6.00

smiles text: CC(C)N1C[C@@H]2C[C@H]1CN2c1c(N(Cc2ccc(-c3nnc(C(F)F)o3)cn2)c2ccccc2)c(=O)c1=O
obs value: < 5.00

# returns recorded pIC50 (system: UniProtKB Q13547) for O=C(/C=C/c1ccc(CN2CCN(Cc3ccc(Br)cc3)CC2)cc1)NO
6.89

# returns recorded pIC50 (system: UniProtKB Q13547) for CC(=O)Nc1cccc(N2C(=O)N(Cc3ccc(-c4nnc(C(F)F)o4)cn3)C(=O)C2(C)C)c1
< 5.00

---

Here's a roundup of IC50 values tested on Histone deacetylase 1 (Homo sapiens), taken from various published works.
recorded metric: IC50 (nM)

Observe how each entry below is paired with its result.
smiles text: COc1ccc(CN2CCC(c3cnc4c(ccn4Cc4ccc(C(=O)NO)cc4)c3)CC2)cc1
measurement target: Histone deacetylase 1 (Homo sapiens)
u: nM
IC50: 1920
//
smiles text: CC(C)(C)OC(=O)N1CC=C(c2cc3c(ccn3Cc3ccc(C(=O)NO)cc3)cn2)CC1
measurement target: Histone deacetylase 1 (Homo sapiens)
u: nM
IC50: 450
//
smiles text: O=C(/C=C/c1ccc(CN2CCC3(CC2)OCCO3)cc1)NO
measurement target: Histone deacetylase 1 (Homo sapiens)
u: nM
IC50: 130

a. Nc1ccccc1NC(=O)c1ccc(CNC(=O)c2cc3ccccc3s2)cc1
b. COc1cc(Br)c2oc(C3CCN(Cc4ccc(/C=C/C(=O)NO)cc4)CC3)cc2c1
Field: lower recorded IC50 (choose a or b ) Give the chosen item's label as your response.
b
(b: 500 nM, a: 1580 nM)

---

Here's a roundup of IC50 values tested on UniProtKB Q13547, taken from various published works.
recorded metric: IC50 (nM)

Observe how each entry below is paired with its result.
compound: O=C(Cc1ccc(-c2csc(NC(=O)c3ccc(N4CCNCC4)cc3)n2)s1)NO
IC50 (nM): 2760
--
compound: CCOC(=O)c1[nH]c2ccccc2c1C1CCCN(Cc2ccc(/C=C/C(=O)NO)cc2F)C1 (centres unmarked)
IC50 (nM): 44
--
compound: Cc1c(Cc2ccc(C(=O)NO)cc2)c2cc(F)ccc2n1CCN1CC[C@H](O)C1
IC50 (nM): 2810
--
compound: CCN(CC)CCn1cnc2cc(/C=C/C(=O)NO)ccc21
IC50 (nM): 190

A. Cc1c(Cc2ccc(C(=O)NO)cc2)c2ccccc2n1CCN1C[C@@H](C)N(CC(C)(C)F)[C@@H](C)C1
B. Nc1ccc2[nH]c(C(=O)NCc3ccc(C(=O)Nc4ccccc4N)cc3)cc2c1
Field: lower recorded IC50 (choose A or B ) Give the chosen item's label as your response.
B
(B: 998 nM, A: 1760 nM)

---

Here's a roundup of pIC50 values tested on Histone deacetylase 1 (Homo sapiens, UniProt Q13547), taken from various published works.
pIC50: −log10 of the molar value.
recorded metric: pIC50

P. Cc1[nH]c2ccccc2c1C[C@H]1CCCN1Cc1ccc(/C=C/C(=O)NO)cc1
Q. Cc1nn(C)c(C)c1CCN1CCC[C@H]1c1ccc(CCC(=O)NO)cc1
R. CCCCCc1nc2cc(/C=C/C(=O)NO)ccc2n1CCN(CC)CCOC
Order by pIC50, ascending. State the ranking by listing the labels in the requested order.
R, Q, P
(R: 7.20, Q: 8.00, P: 9.19)

---

Here's a roundup of IC50 values tested on Histone deacetylase 1 (Homo sapiens, UniProt Q13547), taken from various published works.
recorded metric: IC50 (nM)

Observe how each entry below is paired with its result.
compound: O=C(/C=C/c1ccc(CN2CCN(C(=O)c3ccccc3)CC2)cc1)NO
IC50 / nM: 110
//
compound: O=C(/C=C/c1ccc([C@@H]2CCCN2CCc2cnn3ccccc23)cc1)NO
IC50 / nM: 1
//
compound: Nc1cnccc1NC(=O)c1ccc(CNC(=O)c2cc3ccccc3[nH]2)cc1
IC50 / nM: 344

I. O=C(NO)c1ccc(Cn2ccc3c(-c4ccccc4)ccnc32)cc1
II. O=C(/C=C/c1ccc(C2CCCN2CCc2ccccc2Cl)cc1)NO (centres unmarked)
// compare measured IC50, left I , right II , return larger Give the chosen item's label as your response.
I

---

Here's a roundup of pIC50 values tested on Histone deacetylase 1 (Homo sapiens), taken from various published works.
pIC50: −log10 of the molar value.
recorded metric: pIC50

Observe how each entry below is paired with its result.
molecule: O=C(CCCCCCN(c1ccccn1)c1ccc2ccccc2n1)NO
pIC50: 7.15
//
molecule: CCCCc1nc2cc(/C=C/C(=O)NO)ccc2n1CCN(C)CC
pIC50: 6.96
//
molecule: Cc1c(Cc2ccc(C(=O)NO)cc2)c2ccccc2n1CCCCN1CCN(CC(C)(C)F)CC1
pIC50: 5.30
//
molecule: CN1CCN(Cc2ccc(C(=O)N3CCC(c4cnc5c(ccn5Cc5ccc(C(=O)NO)cc5)c4)CC3)cc2)CC1
pIC50: 6.11

P. CC(C)(C)CC(=O)N1CCN(Cc2ccc(/C=C/C(=O)NO)cc2)CC1
Q. O=C(/C=C/c1ccc(C2CCCN2CCc2ccc(Cl)cc2Cl)cc1)NO (stereo not drawn)
R. O=C(NO)c1ccc(Cn2ccc3c(N4CCN(C(=O)C5(C(F)(F)F)CCC5)CC4)ccnc32)cc1
S. Cc1[nH]c2ccccc2c1C[C@H]1CCCN1Cc1ccc(/C=C/C(=O)NO)cn1
Arrange by pIC50, high to low. State the ranking by listing the labels in the requested order.
S, Q, P, R
(S: 8.77, Q: 8.15, P: 6.80, R: 6.14)

---

Here's a roundup of IC50 values tested on Histone deacetylase 1 (Homo sapiens), taken from various published works.
recorded metric: IC50 (µM)

molecule: O=C(NO)c1ccc(Cn2ccc3cc(C4CCN(S(=O)(=O)c5ccccc5)CC4)cnc32)cc1
recorded metric: IC50
obs value: 2.8
--
molecule: O=C(/C=C/c1ccc(C2CCCN2CCc2cnc3ccccn23)cc1)NO (stereo not shown)
recorded metric: IC50
obs value: 0.0009
--
molecule: CCc1nc2cc(F)c(/C=C/C(=O)NO)cc2c(=O)n1-c1ccc(F)cc1C
recorded metric: IC50
obs value: 4.32
--
molecule: CC(C)(O)c1[nH]c2ccccc2c1C1CCCN(Cc2ccc(/C=C/C(=O)NO)cc2F)C1 (stereo not shown)
recorded metric: IC50
obs value: 0.006
--
molecule: Cc1nn2ccccc2c1CCN1CCC[C@H]1c1ccc(/C=C/C(=O)NO)cc1
recorded metric: IC50
obs value: 0.0006
--
molecule: Cc1nc(C2CCCNC2)sc1C(=O)Nc1nc(-c2ccc(CC(=O)NO)s2)cs1 (stereo not shown)
recorded metric: IC50
obs value: 2.78

P. O=C(NO)c1ccc(Cn2ccc3c(N4CCC5(CC4)CN(Cc4cccnc4)C5)ccnc32)cc1
Q. CCCNNC(=O)c1ccc(-c2ccc(NC(=O)CCCCC(=O)N[C@H](C(=O)N3C[C@H](O)C[C@H]3C(=O)N[C@@H](C)c3ccc(-c4scnc4C)cc3)C(C)(C)C)cc2)cc1
// compare measured IC50, left P , right Q , return larger Give the chosen item's label as your response.
Q

---

Here's a roundup of IC50 values tested on Histone deacetylase 1 (Homo sapiens), taken from various published works.
recorded metric: IC50 (nM)

Observe how each entry below is paired with its result.
molecule: O=C(NO)c1ccc(Cn2ccc3cc(C4CCN(C(=O)c5cccc(CN6CCOCC6)c5)CC4)cnc32)cc1
measurement target: Histone deacetylase 1 (Homo sapiens)
IC50, nM: 1060
--
molecule: O=C(/C=C/c1ccc(CN2C[C@@H](O)C[C@@H]2Cc2c[nH]c3ccccc23)cc1)NO
measurement target: Histone deacetylase 1 (Homo sapiens)
IC50, nM: 0.45
--
molecule: Cc1nn(CCN2CCC[C@H]2c2ccc(/C=C/C(=O)NO)cc2)cc1Br
measurement target: Histone deacetylase 1 (Homo sapiens)
IC50, nM: 30

1. CC/C=C\CCc1nc2cc(/C=C/C(=O)NO)ccc2n1CCN(CC)CC
2. Nc1ccccc1NC(=O)c1ccc(N2CC[C@H](Oc3ccc(C(=O)O)cc3)C2)cc1
3. O=C(/C=C/c1ccc(CN2CCN(S(=O)(=O)c3ccccc3)c3ccccc32)cc1)NO
4. CCCC(C)CN(CCn1cnc2cc(/C=C/C(=O)NO)ccc21)C(C)C (stereo not shown)
Arrange by IC50, high to low. State the ranking by listing the labels in the requested order.
2, 3, 1, 4
